experiment: Protein binding activity of compound in human plasma; % Free; type: ADME, cell-free
property.label: Free
The reply should read as a number followed by its unit.

Worked set:
- smiles.str: "Cc1nc(N)ccc1CNC(=O)Cn1c(C)cc(S(=O)(=O)Cc2ccccc2)c(N)c1=O"
  result: "22%"
- smiles.str: "Cc1nc(N)ccc1CNC(=O)Cn1c(C)cc(S(=O)(=O)c2ccccc2)c(N)c1=O"
  result: "19%"
- smiles.str: "Cc1nc(N)ccc1CNC(=O)Cn1c(C)cc(S(=O)(=O)CC2CCC2)c(N)c1=O"
  result: "45%"

q: Entry under review: Cc1nc(N)ccc1CNC(=O)Cn1c(C)cc(S(=O)(=O)CC2CC2)c(N)c1=O . Reported Free?
a: 70%

// provenance: ChEMBL document CHEMBL1136704
